Test system: B16-F1 cells
Assay: SRB antiproliferative assay, B16-F1 melanoma cells
Type: cell-based, mouse
Details: read-out: IC50 ± SEM B16-F1, 48 h, diastereomeric mixtures
pIC50: −log10 of the molar value.
Parameter Measured: pIC50

[NH2][Pt]([NH2])([Cl])[Cl] [CDDP, cisplatin, reference compound] ... < 4.00

---

Test system: PC-3 cells
Test: SRB antiproliferative assay, PC-3 prostate cancer cells
Format: cell-based, human
Settings: Homo sapiens, PC-3, 96 h, read-out: IC50 ± SEM PC-3
Parameter Measured: IC50 (nM)

CCCCCCCCCCCCCCCCNC(=O)[C@@H]1CSC(c2cc(OC)c(OC)c(OC)c2)N1 (mixture of isomers) ... 1800

---

Test system: WM-164 cells
Test: SRB antiproliferative assay, WM-164 melanoma cells
Format: cell-based, human
Conditions: read-out: IC50 ± SEM WM-164; SRB, 48 h, diastereomeric mixtures
Parameter Measured: IC50

[NH2][Pt]([NH2])([Cl])[Cl] [CDDP, cisplatin, reference compound] ... > 100 µM

---

Tested on: A375 cells
Assay: SRB antiproliferative assay, A375 melanoma cells
Assay type: cell-based, human
Conditions: Homo sapiens, A-375, 48 h, read-out: IC50 ± SEM A375
pIC50: −log10 of the molar value.
Parameter Measured: pIC50

CNC(=O)c1cc(Oc2ccc(NC(=O)Nc3ccc(Cl)c(C(F)(F)F)c3)cc2)ccn1 [Sorafenib, reference compound] ... 5.27

---

Test system: A375 cells
Assay: SRB antiproliferative assay, A375 melanoma cells
Format: cell-based, human
Conditions: read-out: IC50 ± SEM A375; SRB, 48 h, diastereomeric mixtures
Parameter Measured: IC50

[NH2][Pt]([NH2])([Cl])[Cl] [CDDP, cisplatin, reference compound] ... > 100 µM

Origin of the recorded values: paper PMC6675461
